- assayed target: LEF-1/β-catenin interaction (Homo sapiens, UniProt P35222)
- Construct: made in house; host or cells: bacteria
- Sequence (P35222 1-781): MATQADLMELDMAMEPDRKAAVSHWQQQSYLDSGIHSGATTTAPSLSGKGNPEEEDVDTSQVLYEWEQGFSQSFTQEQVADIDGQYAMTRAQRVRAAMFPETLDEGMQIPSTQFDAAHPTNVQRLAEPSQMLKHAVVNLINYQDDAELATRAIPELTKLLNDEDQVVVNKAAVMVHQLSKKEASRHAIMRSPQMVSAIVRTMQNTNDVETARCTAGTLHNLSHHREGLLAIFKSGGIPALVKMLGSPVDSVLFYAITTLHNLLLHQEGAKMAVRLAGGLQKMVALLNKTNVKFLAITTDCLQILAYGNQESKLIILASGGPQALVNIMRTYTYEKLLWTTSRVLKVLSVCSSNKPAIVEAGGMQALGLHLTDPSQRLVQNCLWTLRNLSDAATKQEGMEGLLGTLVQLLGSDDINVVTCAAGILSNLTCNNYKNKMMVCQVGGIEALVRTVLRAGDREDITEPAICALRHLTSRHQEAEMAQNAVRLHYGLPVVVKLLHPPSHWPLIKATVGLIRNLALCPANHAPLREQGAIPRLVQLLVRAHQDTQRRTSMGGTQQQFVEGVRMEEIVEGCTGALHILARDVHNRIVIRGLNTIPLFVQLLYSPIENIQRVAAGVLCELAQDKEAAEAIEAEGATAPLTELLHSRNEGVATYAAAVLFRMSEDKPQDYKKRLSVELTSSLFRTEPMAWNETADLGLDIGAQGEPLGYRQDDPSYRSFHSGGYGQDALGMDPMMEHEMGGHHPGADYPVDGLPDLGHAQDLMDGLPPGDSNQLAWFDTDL
- method: ELISA: inhibition of complex formation of LEF-1 and β-catenin
- Format: binding
- protocol conditions: synthetic peptides, 100 μM to 0.3 μM
recorded metric: inhibition of the interaction between LEF-1 and β-catenin (complex formation)

# substance, val
records = [
    ("Lys21: synthetic hTCF-4 N-terminal peptide with Lys21 substituted (GGDDLGANDELISFADEGEQEEK)", "has the same effect"),
    ("Phe20: synthetic hTCF-4 N-terminal peptide with Phe20 substituted (GGDDLGANDELISAKDEGEQEEK)", "has the same effect"),
]

----------
- assayed target: LEF-1/β-catenin interaction (Homo sapiens, UniProt P35222)
- method: ELISA: inhibition of complex formation of LEF-1 and β-catenin
- protocol conditions: recombinant purified proteins, 15–250 μM, FIG. 9, read-out: IC50, reduction of the complex formation of LEF-1 and β-catenin
- Source text: Both proteins were produced in bacteria recombinantly with N-terminal histidine sequences, purified by means of nickel chromatography for quantifying the inhibition of the LEF-1/β-catenin interaction by synthetic peptides and (Behrens et al. 1996). […] The complex formation of LEF-1 and β-catenin was detected by the antibody PA2 against the carboxy terminal area of β-catenin (Huelsken et al. 1994). […]
Where a name gives a salt, the structure may show the parent alone.
recorded metric: pIC50
Conceptually, pIC50 converts a concentration in mol/L into minus its log10.

Supply measured pIC50 of Cn1nnnc1SCC1=C(C(=O)O)N2C(=O)C(NC(=O)[C@@H](O)c3ccccc3)C2SC1 (stereo partly shown) [cefamandole, CEFAMANDOLESODIUM SALT, reference compound] in your reply.
4.60

----------
- assayed target: LEF-1/β-catenin interaction (Homo sapiens, UniProt P35222)
- Construct: made in house; host or cells: bacteria
- Sequence (P35222 1-781): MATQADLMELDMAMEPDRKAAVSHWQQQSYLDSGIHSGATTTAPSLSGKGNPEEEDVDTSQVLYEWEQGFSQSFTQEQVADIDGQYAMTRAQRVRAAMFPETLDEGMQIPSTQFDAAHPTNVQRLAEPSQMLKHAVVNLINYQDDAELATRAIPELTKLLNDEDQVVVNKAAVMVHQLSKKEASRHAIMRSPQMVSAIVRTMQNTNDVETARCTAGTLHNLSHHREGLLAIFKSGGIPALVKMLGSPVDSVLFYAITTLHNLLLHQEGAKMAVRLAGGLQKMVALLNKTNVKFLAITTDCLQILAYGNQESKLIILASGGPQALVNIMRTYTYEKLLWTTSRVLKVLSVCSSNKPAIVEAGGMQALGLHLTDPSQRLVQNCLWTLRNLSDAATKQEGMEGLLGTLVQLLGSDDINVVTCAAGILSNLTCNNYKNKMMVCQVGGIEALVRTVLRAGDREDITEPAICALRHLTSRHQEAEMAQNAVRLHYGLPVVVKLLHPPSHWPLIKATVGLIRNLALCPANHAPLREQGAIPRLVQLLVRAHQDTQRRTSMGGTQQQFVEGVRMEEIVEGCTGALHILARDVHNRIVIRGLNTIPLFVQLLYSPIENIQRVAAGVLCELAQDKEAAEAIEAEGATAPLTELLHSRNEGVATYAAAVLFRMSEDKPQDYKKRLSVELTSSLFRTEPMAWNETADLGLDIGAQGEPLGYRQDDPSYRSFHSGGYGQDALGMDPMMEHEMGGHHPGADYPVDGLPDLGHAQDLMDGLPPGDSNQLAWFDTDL
- method: ELISA: inhibition of complex formation of LEF-1 and β-catenin
- Assay type: binding
- protocol conditions: synthetic peptides, 100 μM to 0.3 μM
Where no end group is shown, it is not given here.
recorded metric: inhibition of the interaction between LEF-1 and β-catenin (complex formation)

# substance, assayed target, val
records = [
    ("GDPELCATDEMIPFKDEGDPQKEK [11–34]", "LEF-1/β-catenin interaction (Homo sapiens, UniProt P35222)", "inhibit specifically"),
    ("Asp10: synthetic hTCF-4 N-terminal peptide with Asp10 substituted by alanine (GGDALGANDELISFKDEGEQEEK)", "LEF-1/β-catenin interaction (Homo sapiens, UniProt P35222)", "stopping the inhibition"),
    ("Asp15: synthetic hTCF-4 N-terminal peptide with Asp15 substituted by alanine (GGDDLGANAELISFKDEGEQEEK)", "LEF-1/β-catenin interaction (Homo sapiens, UniProt P35222)", "stopping the inhibition"),
    ("ELCATDEMIPFKDE [14–27]", "LEF-1/β-catenin interaction (Homo sapiens, UniProt P35222)", "inhibit specifically"),
]
